# TARGET_OF_ASSAY: Gal(b1-4)GlcNAc(b1-3)Gal(b1-4)GlcNAc(b1-3)[Gal(b1-4)GlcNAc(b1-3)Gal(b1-4)GlcNAc(b1-6)]GalNAc
# PROTOCOL_SUMMARY: glycan array binding signal (z-score within array); higher = stronger binding
# CONDITION_NOTES: glycan notation: IUPAC condensed, linker removed
This is one part of a sample in which the strongest signals are shown more often than they occur.

[
  {
    "BINDER": "SynCAM (Mus musculus) (protein) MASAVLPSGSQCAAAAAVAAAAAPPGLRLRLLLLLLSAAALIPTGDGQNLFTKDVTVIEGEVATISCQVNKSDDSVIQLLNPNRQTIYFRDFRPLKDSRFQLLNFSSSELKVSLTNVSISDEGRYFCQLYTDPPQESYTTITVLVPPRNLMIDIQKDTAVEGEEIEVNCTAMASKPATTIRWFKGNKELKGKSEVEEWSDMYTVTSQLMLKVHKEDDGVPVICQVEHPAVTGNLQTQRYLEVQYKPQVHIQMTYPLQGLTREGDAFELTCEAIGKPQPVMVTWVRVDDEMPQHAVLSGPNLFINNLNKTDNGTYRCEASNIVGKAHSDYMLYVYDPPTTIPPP",
    "glycan array binding signal (z-score)": 0.945
  }
]

Values were extracted from the supplement of paper PMC8728848.
